meta.source: patent US20060069132A1

Tested on: giant foxtail
ASSAY: Test A pre-/postemergence herbicide test
Format: in vivo, Setaria faberi
TEST_PARAMETERS: Preemergence, 2000 g ai/ha; visual rating, 0 to 100 scale (0 no effect, 100 complete control)
Just a reminder that ties go to F: only Foxtail, Giant plant response rating strictly below 70 counts as T.

>>> category("C#CCNC(=O)c1ccc(F)c(NC(=O)c2cc(C(C)(C)C)nn2CC)n1 [Compound 279]")
"T"
>>> category("CCNC(=O)c1ccc(F)c(NC(=O)C2CC(C(C)(C)C)=NN2CC)c1 (racemic) [Compound 269]")
"F"
>>> category("CC(=O)c1cccc(NC(=O)c2sc(C(C)(C)C)nc2C)c1 [Compound 196]")
"T"

Shifting focus to the compound that follows.
Prompt: Find out if reported Foxtail, Giant plant response rating for CCc1nc(C(C)(C)C)sc1C(=O)Nc1cccc(C(=O)N(CC)CC)n1 [Compound 214] is less than 70
Response: T

====

Test system: small flower umbrella sedge
ASSAY: Test B flooded paddy test
Type: in vivo, Cyperus difformis
TEST_PARAMETERS: 1000 g ai/ha, visual rating, scale 0 to 100 (0 no effect, 100 complete control), 13 to 15 days
REPORTED_ENDPOINT: Sedge, Umbrella plant response rating
Please state the value as a number alone, without comment.

Below, each entry is followed by its recorded Sedge, Umbrella plant response rating result.
>>> numeric_value("CCCn1nc(C(C)(C)C)cc1C(=O)Nc1cccc(C(C)=NO)c1")
90
>>> numeric_value("CCN(CC)C(=O)c1cccc(NC(=O)c2nn(C(C)(C)C)cc2Cl)c1")
20
>>> numeric_value("CCn1nc(C(C)(C)C)cc1C(=O)Nc1cccc(C(C)=O)c1")
80
>>> numeric_value("CCn1nc(C(C)(C)C)cc1C(=O)Nc1cccc(C(=O)NCC2CC2)c1")
80
>>> numeric_value("CC(=O)c1cccc(NC(=O)c2cc(C(C)(C)C)nn2CCF)c1")
90
>>> numeric_value("CCN(CC)C(=O)c1cccc(NC(=O)c2sc(C(C)(C)C)nc2C)c1")
10

Prompt: Any idea what its Sedge, Umbrella plant response rating is? The compound is CCc1nc(C(C)(C)C)sc1C(=O)Nc1cc(C(=O)N(C)C)ccc1F
Response: 90

Prompt: // next record CC(=O)c1cccc(NC(=O)c2cc(C(C)(C)C)nn2CC(F)(F)F)c1
Response: 80

Prompt: // next record CC(=NO)c1cccc(NC(=O)c2cn(C(C)C)nc2C)c1
Response: 0

Prompt: // next record CCn1nc(C(C)(C)C)cc1C(=O)Nc1cccc(OCCCF)c1
Response: 80

Prompt: // next record CCn1nc(C(C)(C)C)cc1C(=O)Nc1cc(C(=O)OC(C)(C)C)ccc1F
Response: 0

Prompt: // next record CCn1nc(C(C)(C)C)cc1C(=O)Nc1cc(C(=O)NCC2CC2)ccn1
Response: 90

Prompt: // next record CCn1nc(C(C)(C)C)cc1C(=O)Nc1cccc(C(=O)N(C)C)c1
Response: 80

Prompt: // next record CCc1nc(C(C)(C)C)sc1C(=O)Nc1cccc(C(=O)N(CC)CC)c1
Response: 60

Prompt: // next record CCNC(=O)c1cccc(NC(=O)c2cc(C(C)(C)C)nn2CC(F)(F)F)c1
Response: 50

====

Test system: wheat
ASSAY: Test B postemergence herbicide test
Type: in vivo, Triticum aestivum
TEST_PARAMETERS: Postemergence, 500 g ai/ha; visual rating after 13 to 15 days, scale 0 (no effect) to 100 (complete control)
Plant response rating, Wheat values by entry
Please state the value as a number alone, without comment.

>>> numeric_value("CC(=NO)c1cccc(NC(=O)c2cc(C(C)(C)C)nn2C)c1 [Compound 107]")
0
>>> numeric_value("CCOC(=O)c1cccc(NC(=O)c2cc(C(C)(C)C)nn2CC)c1 [Compound 80]")
30
>>> numeric_value("C=Cn1nc(C(C)(C)C)cc1C(=O)Nc1cccc(C(=O)N(CC)CC)c1 [Compound 34]")
30
>>> numeric_value("CCOC(=O)c1cc(NC(=O)c2cc(C(C)(C)C)nn2CC)ccc1OCC [Compound 95]")
10
>>> numeric_value("CCn1nc(C(C)(C)C)cc1C(=O)Nc1cccc(C(=O)OCCF)c1 [Compound 82]")
20
>>> numeric_value("CCn1nc(C(C)(C)C)cc1C(=O)Nc1cccc(C(=O)NC2CC2)c1 [Compound 44]")
20

Prompt: Any idea what its Plant response rating, Wheat is? The compound is CCn1nc(C(C)(C)C)cc1C(=O)Nc1cccc(C(=O)NCC(C)C)c1 [Compound 61]
Response: 10

Prompt: // next record CCNC(=O)c1cccc(NC(=O)c2cc(C(C)(C)C)nn2CCF)c1 [Compound 35]
Response: 20

====

Tested on: yellow nutsedge
ASSAY: Test C pre-/postemergence herbicide test
Format: in vivo, Cyperus esculentus
TEST_PARAMETERS: 250 g ai/ha; scale 0-100; preemergence
Plant response rating, Nutsedge, Yellow values by entry
Please state the value as a number alone, without comment.

Below, each entry is followed by its recorded Plant response rating, Nutsedge, Yellow result.
>>> numeric_value("CCN(CC)C(=O)c1cccc(NC(=O)c2sc(C(C)(C)C)nc2C)c1")
0
>>> numeric_value("CCNC(=O)c1ccc(F)c(NC(=O)c2cc(C3(C)CC3)nn2CC)c1")
60

Prompt: Any idea what its Plant response rating, Nutsedge, Yellow is? The molecule is C=CCNC(=O)c1cccc(NC(=O)c2nn(C(C)C)nc2CC)c1
Response: 25

====

Plant response rating, Canarygrass values by entry
Test system: canarygrass
ASSAY: Test C postemergence herbicide test
Assay type: in vivo, Phalaris minor
TEST_PARAMETERS: postemergence; 62 g ai/ha; scale 0 to 100
Please state the value as a number alone, without comment.

>>> numeric_value("CCCCOc1cccc(NC(=O)c2cc(C(C)(C)C)nn2CC)c1 [Compound 137]")
20

Prompt: Any idea what its Plant response rating, Canarygrass is? The compound is CCn1nc(C(C)(C)C)cc1C(=O)Nc1cccc(C(=O)NCC2CC2)c1 [Compound 62]
Response: 0

Prompt: // next record C=CCN(CC=C)C(=O)c1cccc(NC(=O)c2nn(C(C)(C)C)nc2CC)c1 [Compound 415]
Response: 45

Prompt: // next record CCOC(=O)c1cccc(NC(=O)c2cc(C3(C)CC3)nn2CC)c1 [Compound 295]
Response: 30

Prompt: // next record CCn1nc(C(C)(C)C)cc1C(=O)Nc1cc(OC(F)(F)F)ccc1F [Compound 338]
Response: 20

====

Plant response rating, Foxtail, Giant values by entry
System: giant foxtail
ASSAY: Test B pre-/postemergence herbicide test
Format: in vivo, Setaria faberi
TEST_PARAMETERS: 500 g ai/ha; visual rating, 0 = no effect, 100 = complete control; preemergence
Please state the value as a number alone, without comment.

Prompt: Any idea what its Plant response rating, Foxtail, Giant is? The compound is CCNC(=O)c1cccc(NC(=O)c2nn(C3CCCC3)nc2CC)c1
Response: 80

Prompt: // next record Cn1nc(C(C)(C)C)cc1C(=O)Nc1cccc(C(=O)NC2CC2)n1
Response: 20

Prompt: // next record CCNC(=O)c1ccc(F)c(NC(=O)c2cc(C3(C)CC3)nn2CC)c1
Response: 100

Prompt: // next record CCc1nc(C(C)(C)C)sc1C(=O)Nc1cccc(C(=O)NC(C)(C)C)n1
Response: 60

Prompt: // next record CCn1nc(C(C)(C)C)cc1C(=O)Nc1cc(OC(F)(F)F)ccc1F
Response: 100

====

Test system: large crabgrass
ASSAY: Test B pre-/postemergence herbicide test
Type: in vivo, Digitaria sanguinalis
TEST_PARAMETERS: 125 g ai/ha; visual rating, scale 0 (no effect) to 100 (complete control); postemergence
REPORTED_ENDPOINT: Crabgrass, Large plant response rating
Please state the value as a number alone, without comment.

Below, each entry is followed by its recorded Crabgrass, Large plant response rating result.
>>> numeric_value("CCc1nn(C(C)(C)CC)nc1C(=O)Nc1cc(C(=O)N2CC=CC2)ccc1F [Compound 371]")
0
>>> numeric_value("C=CCNC(=O)c1cccc(NC(=O)c2nn(C(C)C)nc2CC)c1 [Compound 382]")
10
>>> numeric_value("Cc1nn(C(C)(C)C)nc1C(=O)Nc1cc(C(=O)N(C)C)ccc1F [Compound 378]")
0
>>> numeric_value("CCNC(=O)c1ccc(F)c(NC(=O)c2cc(C3(C)CC3)nn2CC)c1 [Compound 300]")
10

Prompt: Any idea what its Crabgrass, Large plant response rating is? The compound is CCN1N=C(C(C)(C)C)CC1C(=O)Nc1cc(C(=O)N2CC=CC2)ccc1F (racemic) [Compound 310]
Response: 10

Prompt: // next record CCn1nc(C(C)(C)C)cc1C(=O)Nc1cc(OC(F)(F)F)ccc1F [Compound 338]
Response: 20

Prompt: // next record CC(=NO)c1cccc(NC(=O)c2cc(C(C)(C)C)n[nH]2)c1 [Compound 311]
Response: 0

Prompt: // next record CCc1nn(C(C)C)nc1C(=O)Nc1cccc(C(=O)N2CCCCC2)c1 [Compound 385]
Response: 0

Prompt: // next record CCc1nn(C(C)(C)C)cc1C(=O)Nc1cccc(C(=O)N(C)C)n1 [Compound 292]
Response: 0
